Value source: PubChem BioAssay

- assay.summary: antimalarial activity against Dd2 strain (AID 2302);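 further: 0% = DMSO untreated growth and 100% = chloroquine plus artemisinin killed control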
- run.parameters: P. falciparum Dd2 in RBCs, LDH growth readout, 72 h; at 2 µM; stronger effect = higher value
Known growth inhibition of a selection of compounds
// units = %; emit number, no label

Consider the reported growth inhibition for these compounds:
compound	unit	recorded.number
Oc1ccc(CCNc2nc(NCc3ccccc3-c3ccc(C(F)(F)F)cc3)nc(N3CCNCC3)n2)cc1	%	53
Cc1cc(NCc2ccccc2)nc(NCc2ccccc2)n1	%	18
C#CC(C)(CO)N1CCCC1 (centres undefined)	%	1
CC1CCCCC1N(C)C1CCN(CCCNC(=O)C=Cc2ccc(Cl)cc2Cl)CC1 (centres undefined)	%	59
COc1cc(OC)cc(-c2nn(-c3ccc([N+](=O)[O-])cc3Cl)c(=S)n2CC2CCCO2)c1 (centres undefined)	%	98

Looking up Clc1ccc2c(NCc3ccc4c(c3)OCO4)ccnc2c1 , I see its growth inhibition listed as 97

Looking up O=C(Nc1cccc(N2CCC(NCc3cccnc3)CC2)c1)c1cccc(C(F)(F)F)c1 , I see its growth inhibition listed as 2

Looking up OCC1CCN(Cc2ccc(-c3cccc(-c4nc5ccccc5[nH]4)c3)cc2)CC1 , I see its growth inhibition listed as 6

---

- system.name: L-lactate dehydrogenase (Plasmodium falciparum (isolate CDC / Honduras)) (UniProt Q27743)
- Sequence (Q27743 whole entry, looked up): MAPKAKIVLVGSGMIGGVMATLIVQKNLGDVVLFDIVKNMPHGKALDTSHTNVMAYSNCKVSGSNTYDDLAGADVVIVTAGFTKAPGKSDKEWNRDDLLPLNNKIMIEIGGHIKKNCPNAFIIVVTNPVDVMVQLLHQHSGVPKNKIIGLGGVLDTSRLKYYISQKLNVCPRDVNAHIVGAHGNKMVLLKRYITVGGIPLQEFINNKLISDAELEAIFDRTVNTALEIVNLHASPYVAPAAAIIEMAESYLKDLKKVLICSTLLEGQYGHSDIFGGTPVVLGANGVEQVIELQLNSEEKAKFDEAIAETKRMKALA
- assay.summary: PfLDH activity inhibition – cell lysate, 3D7 strain, counter-screen for P. falciparum growth inhibition project (AID 2304);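 further: 0% = vehicle and 100% = reference inhibitor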
- run.parameters: P. falciparum 3D7 crude extract, LDH APAD/NBT absorbance; at 2 µM; stronger effect = higher value
Known inhibition of a selection of compounds
// units = %; emit number, no label

compound	inhibition [%]
O=C(NC1CCCCC1)C1CCCN(C(=O)c2ccc(O)c(-c3ccc(Cl)c(Cl)c3)c2)C1 (centres undefined)	0
COc1ccc2ncc(F)c(CCN3[C@@H]4CC[C@H]3CC(NCc3cc5c(cn3)OCS5)C4)c2n1 (some centres undefined)	-2
O=[N+]([O-])c1ccc2nccnc2c1	-1
O=C(Nc1ccc(C(F)(F)F)cc1)NC1CCN(CCCCCNC(=O)[C@@H]2C[C@H]2c2ccc(Cl)c(Cl)c2)CC1	-7
COc1ccc(Cc2nc3c(n2C(C)=O)SC(c2ccc(Cl)c(Cl)c2)=NN3C(C)=O)cc1	-6

Looking up Cc1cc(N)c2cc(NC(=O)c3cccc(C(=O)Nc4ccc5nc(C)cc(N)c5c4)c3)ccc2n1 , I see its inhibition listed as 4

Looking up COc1cc(NC(=O)C(c2ccc(Cl)cc2)C(C)C)cc(OC)c1 (centres undefined) , I see its inhibition listed as -3

Looking up O=C(NC1CCC1)C1CCN(C(c2ccc(Cl)cc2)c2ccc(Cl)cc2)CC1 , I see its inhibition listed as 8

Looking up COc1ccc(-c2ccc(NC(=O)c3cccc(Cl)c3)cc2)cc1CN(C)CCO , I see its inhibition listed as -4

---

- system.name: L-lactate dehydrogenase (Plasmodium falciparum (isolate CDC / Honduras)) (UniProt Q27743)
- assay.summary: PfLDH activity inhibition – cell lysate, 3D7 strain, counter-screen for P. falciparum growth inhibition project (AID 2304);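 further: 0% = vehicle and 100% = reference inhibitor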
- run.parameters: P. falciparum 3D7 crude extract, LDH APAD/NBT absorbance; at 2 µM; stronger effect = higher value
Known inhibition of a selection of molecules
// units = %; emit number, no label

Consider the reported inhibition for these molecules:
molecule	recorded.number
CCOc1cc(C(=O)Nc2cccnc2)ccc1-c1nc2cc(Cl)c(Cl)cc2[nH]1	0
N#Cc1ccc2c(c1)CN(C1CCC(NC(=O)c3cc(-c4ccc(Cl)cc4)cs3)CC1)CCC2 (centres undefined)	0
CCN(CC)CCCCCNc1c2ccc(Cl)cc2nc2ccc(OC)cc12	4
CCn1c(=O)c(C(=O)Nc2cc(Cl)c(OC)cc2OC)nc2ccccc21	6
Cc1ccc2nc(Nc3ccc(Nc4nc5ccc(C)cc5[nH]4)c(C)c3)[nH]c2c1	6

Looking up COCCNCc1cccc(-c2cc3nccc(Nc4ccc(Oc5ccccc5)cc4)c3cc2Cl)c1 , I see its inhibition listed as 1

Looking up Cc1nc2ccc(-c3nc4ccc(N)cc4[nH]3)cc2[nH]1 , I see its inhibition listed as -5

Looking up CCc1cn2c3c(cc(C(=O)N[C@@H](Cc4ccccc4)[C@H](O)CNC4CCCCC4)cc13)N(C)S(=O)(=O)C2 , I see its inhibition listed as 0

Looking up Cc1cc(O)c2c3c1C(=O)C=C1C3c3c(c(O)cc(O)c3C(=O)C1(C)C)C2=O (centres undefined) , I see its inhibition listed as -3

Looking up CCN(CC)CCOc1ccc(C(O)(C#CC(O)(c2ccc(C)cc2)c2ccc(OCCN(CC)CC)cc2)c2ccc(C)cc2)cc1 (centres undefined) , I see its inhibition listed as 6

Looking up Cc1nnc2c(NC(=O)NC3CCCC3)cc3ccc(-c4cccc(CN5CCN(C)CC5)c4)cc3n12 , I see its inhibition listed as 2

Looking up Cc1cc(C(=O)N(Cc2ccc(-c3ccc(CNCCc4ccc(S(C)(=O)=O)cc4)cn3)cc2)C(C)CN(C)C)ccc1[N+](=O)[O-] (centres undefined) , I see its inhibition listed as -1

Looking up C/C=C/COc1ccc(-c2c(C)[nH]c(C)c(Cl)c2=O)cc1 , I see its inhibition listed as 2

Looking up Cc1cc(C(F)(F)F)n2nc(C3CCN(Cc4cc(C)c(O)c(C)c4)C3)cc2n1 (centres undefined) , I see its inhibition listed as 0

---

- assay.summary: human hepatoma cell viability loss – ATP luminescence, cytotoxicity control for P. falciparum antimalarial project, primary screen (AID 2303);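 further: 0% = DMSO wells and 100% = digitonin-killed cells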
- run.parameters: HepG2 viability, 24-48 h, at 10 µM
The source made the active and inactive calls.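 The calls were made as follows: active = inhibition above 50%; inactive = the rest.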
Give your call using only these classes: True for active, False for inactive

compound	label.class
C[C@@H]1CN(c2cnn(C/C=C/c3ccc(NC(=O)c4ccc(Cl)cc4)cc3)c(=O)c2Cl)C[C@H](C)N1	False
Cc1noc(C)c1-c1ccc2c(Nc3ccccc3C(C)(C)C)c(C(=O)NCc3cccc4ccccc34)cnc2c1	False
CC(C)N=C(N)NN=Cc1ccc(Cl)c(Cl)c1	False
CC(C)c1sc(N2CCN(C)CC2)nc1C(=O)NCCc1ccc(Br)cc1	False
Fc1ccc2nc(-c3ccc(-c4ccc(CNCCc5cccnc5)cc4)s3)[nH]c2c1	False
Cc1ccc(NC(=O)c2ccc3ncccc3c2)cc1OC1CCN(CCC(C)C)C1 (configuration not stated)	False
CC(C)C[C@H](NC(=O)c1ccc(OCCN2CCOCC2)cc1)C(=O)NC(/C=N/N1CCCC1=O)C(C)C (some centres not stated)	False
O=C(Nc1ccc(-c2cccc(-c3nc4ccccc4[nH]3)c2)cc1)Nc1ccc(Cl)c(Cl)c1	True
COc1cccc(-c2ccc(C(=O)NC3CCN(Cc4ccc(C(C)(C)C)cc4)CC3)s2)c1	False
C=CCc1cccc(OC)c1OCCCON1C(N)=NC(N)=NC1(C)C	True

Dear all, I need the recorded test outcome for COc1ccc(CN(C)CCCCc2ccc(NC(=O)COc3cccc4sc5ccccc5c(=O)c34)cc2)cc1OC , thank you. False

Dear all, I need the recorded test outcome for CN1CCC(N2CCN(c3ccc4c(=O)nc(CCc5cccc(F)c5F)n(CC(=O)N(C)Cc5ccc(-c6ccc(C(F)(F)F)cc6)cc5)c4n3)CC2)CC1 , thank you. False

Dear all, I need the recorded test outcome for Cc1nnsc1C(=O)Nc1ccc(-c2ccc(-c3nc4c(C)cccc4[nH]3)s2)cc1 , thank you. True

Dear all, I need the recorded test outcome for COc1ccccc1OCCN(CC(O)COc1cccc2[nH]c3ccccc3c12)CC(O)COc1cccc2[nH]c3ccccc3c12 (configuration not stated) , thank you. False

Dear all, I need the recorded test outcome for COc1ccc(C2CCN(CCCCNC(=O)c3ccc(NC(=O)c4ccc(Cl)cc4)cc3)CC2)c(C)c1 , thank you. False

Dear all, I need the recorded test outcome for COc1ccc(C2C(C(=O)Nc3cc(C)ccc3OC)c3ccccc3C(=O)N2C)cc1 (configuration not stated) , thank you. False

Dear all, I need the recorded test outcome for Nc1nc(N)c2c(ccc3c2ccn3Cc2ccccn2)n1 , thank you. True

Dear all, I need the recorded test outcome for Cc1c(Br)cc2[nH]c(-c3ccc(C(=O)NC4CCN(Cc5ccccc5)CC4)cc3)nc2c1C , thank you. False

Dear all, I need the recorded test outcome for COc1cc(OCCCN(C)Cc2ccc(OC)c(OC)c2)ccc1NC(=O)c1cccc2c(=O)c3cccc(F)c3[nH]c12 , thank you. False

---

Known growth inhibition of a selection of compounds
- assay.summary: inhibition of 3D7 malaria parasite growth – strain 3D7 (AID 2306);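 further: 0% = DMSO wells and 100% = chloroquine plus artemisinin control wells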
- run.parameters: P. falciparum 3D7 erythrocytic growth, LDH absorbance, 72 h; at 2 µM; stronger effect = higher value
// units = %; emit number, no label

Consider the reported growth inhibition for these compounds:
compound	growth inhibition / %
Cc1nn(CC(C)C)c2sc(C(=O)N3CCN(S(=O)(=O)c4ccc(C#N)cc4)CC3)cc12	99
Cc1cc(Cl)c(S(=O)(=O)N2CCc3ccccc32)cc1OCC(=O)NC1CCCCC1	101
CC(C)C[C@H](NC(=O)c1ccc(OCCN2CCOCC2)cc1)C(=O)NC(/C=N/N1CCCC1=O)C(C)C (stereo partly drawn)	90
COc1ccc2nccc([C@@H](O)CN3CCC(NS(=O)(=O)c4cc(Br)c(Br)s4)CC3)c2c1	92

Looking up Cc1cccc2[nH]c(-c3cccc(-c4cccc(CN5CCN(c6ccncc6)CC5)c4)c3)nc12 , I see its growth inhibition listed as 102

Looking up O=C(Nc1ccc(Cl)cn1)c1sc2ccccc2c1O , I see its growth inhibition listed as 99

Looking up Fc1ccc2nc(-c3ccc(-c4ccc(CN5CCN(CCN6CCOCC6)CC5)cc4)cc3)[nH]c2c1 , I see its growth inhibition listed as 101
